# assay-overview: Single dose bioavailability of L-dC in the cynomologus monkey
# Type: in vivo, cynomolgus monkey
# cond: cynomolgus monkey, blood; L-dC 10 mg/kg single oral dose, n=3, mean; read-out: AUClast of L-dC
value-kind: AUC(0-t) (µM·h)
Hi! Could you send only the number? It should be in µM·h, unit omitted.

Ask | Look up AUC(0-t): Nc1ccn([C@@H]2CC(O)[C@H](CO)O2)c(=O)n1 (stereo partly shown)
Reply | 13.7

----------
# Tested on: L515M/M552V mutant HBV, cell line MV5/B3
# assay-overview: Antiviral testing in stable HepG2 cell lines, EPA of intracellular nucleocapsids
# Type: cell-based, hepatitis B virus
# cond: L515M/M552V, cell line MV5/B3; mean ± SD of three to four experiments; read-out: EC50
Structures can show the parent of a compound that is named as a salt.
value-kind: pEC50
In plain terms, pEC50 is the concentration in mol/L turned into minus its base-10 logarithm.

Ask | Look up pEC50: Nc1ccn([C@@H]2C[C@@H](O)[C@H](CO)O2)c(=O)n1 [LdC-HCl]
Reply | 3.11

----------
# assay-overview: Single dose bioavailability of L-dC in the cynomologus monkey
# Type: in vivo, cynomolgus monkey
# cond: cynomolgus monkey, blood; L-dC 10 mg/kg single IV dose, mean; read-out: total clearance (CL) (converted)
value-kind: clearance (mL/min/kg)
Hi! Could you send only the number? It should be in mL/min/kg, unit omitted.

Ask | Look up clearance: Nc1ccn([C@@H]2CC(O)[C@H](CO)O2)c(=O)n1 (stereo partly drawn) [L-dC, 2′-Deoxy-β-L-cytidine]
Reply | 8.83

----------
# assay-overview: in vivo
# cond: Sprague-Dawley, rat, po, 10 mg/kg
value-kind: half-life (h)
Hi! Could you send only the number? It should be in h, unit omitted.

Ask | Look up half-life: Nc1ccn([C@@H]2CC(O)[C@H](CO)O2)c(=O)n1 (stereo partly shown)
Reply | 2.52

----------
# assay-overview: Single-dose bioavailability of L-dC in the woodchuck
# Format: in vivo
# cond: plasma, po, 10 mg/kg, L-dC 10 mg/kg PO vs IV; read-out: oral bioavailability, range of animals
value-kind: bioavailability

Ask | Look up bioavailability: Nc1ccn([C@@H]2CC(O)[C@H](CO)O2)c(=O)n1 (stereo partly shown)
Reply | 5.6 to 16.9%

----------
# assay-overview: Single-dose bioavailability of L-dC in the woodchuck
# Type: in vivo
# cond: plasma; L-dC 10 mg/kg single IV dose
value-kind: Tmax (h)
Hi! Could you send only the number? It should be in h, unit omitted.

Ask | Look up Tmax: Nc1ccn([C@@H]2CC(O)[C@H](CO)O2)c(=O)n1 (stereo partly drawn) [L-dC, 2′-Deoxy-β-L-cytidine]
Reply | 0

----------
# assay-overview: Single dose bioavailability of L-dC in the cynomologus monkey
# Assay type: in vivo, cynomolgus monkey
# cond: cynomolgus monkey, blood; L-dC 10 mg/kg single oral dose
value-kind: Cmax (µM)
Hi! Could you send only the number? It should be in µM, unit omitted.

Ask | Look up Cmax: Nc1ccn([C@@H]2CC(O)[C@H](CO)O2)c(=O)n1 (stereo partly drawn) [L-dC, 2′-Deoxy-β-L-cytidine]
Reply | 3.38

----------
# assay-overview: Single-dose bioavailability of L-dC in the rat
# cond: female, Sprague-Dawley, plasma, iv, 10 mg/kg
value-kind: AUC(0-t) (µM·h)
Hi! Could you send only the number? It should be in µM·h, unit omitted.

Ask | Look up AUC(0-t): Nc1ccn([C@@H]2CC(O)[C@H](CO)O2)c(=O)n1 (stereo partly shown)
Reply | 30.1

Ref: patent US8158606B2
